# runDescription: Tmax in rat at 5 mg/kg, po
# Type: ADME, organism-based
# Parameters: dose 5 mg/kg, route oral
# setupConditions: in vivo
observationType: Tmax (h)
Use h as the unit, but write only the number.

Returns the measured Tmax for the input compound. Input: CC(C)(O)c1ccc(-c2cnc3c(n2)N(CC2CCOCC2)CC(=O)N3)cn1
1.2

---

# assayedSystem: Insulin receptor (Homo sapiens) (UniProt P06213)
# Sequence (P06213 whole entry, looked up): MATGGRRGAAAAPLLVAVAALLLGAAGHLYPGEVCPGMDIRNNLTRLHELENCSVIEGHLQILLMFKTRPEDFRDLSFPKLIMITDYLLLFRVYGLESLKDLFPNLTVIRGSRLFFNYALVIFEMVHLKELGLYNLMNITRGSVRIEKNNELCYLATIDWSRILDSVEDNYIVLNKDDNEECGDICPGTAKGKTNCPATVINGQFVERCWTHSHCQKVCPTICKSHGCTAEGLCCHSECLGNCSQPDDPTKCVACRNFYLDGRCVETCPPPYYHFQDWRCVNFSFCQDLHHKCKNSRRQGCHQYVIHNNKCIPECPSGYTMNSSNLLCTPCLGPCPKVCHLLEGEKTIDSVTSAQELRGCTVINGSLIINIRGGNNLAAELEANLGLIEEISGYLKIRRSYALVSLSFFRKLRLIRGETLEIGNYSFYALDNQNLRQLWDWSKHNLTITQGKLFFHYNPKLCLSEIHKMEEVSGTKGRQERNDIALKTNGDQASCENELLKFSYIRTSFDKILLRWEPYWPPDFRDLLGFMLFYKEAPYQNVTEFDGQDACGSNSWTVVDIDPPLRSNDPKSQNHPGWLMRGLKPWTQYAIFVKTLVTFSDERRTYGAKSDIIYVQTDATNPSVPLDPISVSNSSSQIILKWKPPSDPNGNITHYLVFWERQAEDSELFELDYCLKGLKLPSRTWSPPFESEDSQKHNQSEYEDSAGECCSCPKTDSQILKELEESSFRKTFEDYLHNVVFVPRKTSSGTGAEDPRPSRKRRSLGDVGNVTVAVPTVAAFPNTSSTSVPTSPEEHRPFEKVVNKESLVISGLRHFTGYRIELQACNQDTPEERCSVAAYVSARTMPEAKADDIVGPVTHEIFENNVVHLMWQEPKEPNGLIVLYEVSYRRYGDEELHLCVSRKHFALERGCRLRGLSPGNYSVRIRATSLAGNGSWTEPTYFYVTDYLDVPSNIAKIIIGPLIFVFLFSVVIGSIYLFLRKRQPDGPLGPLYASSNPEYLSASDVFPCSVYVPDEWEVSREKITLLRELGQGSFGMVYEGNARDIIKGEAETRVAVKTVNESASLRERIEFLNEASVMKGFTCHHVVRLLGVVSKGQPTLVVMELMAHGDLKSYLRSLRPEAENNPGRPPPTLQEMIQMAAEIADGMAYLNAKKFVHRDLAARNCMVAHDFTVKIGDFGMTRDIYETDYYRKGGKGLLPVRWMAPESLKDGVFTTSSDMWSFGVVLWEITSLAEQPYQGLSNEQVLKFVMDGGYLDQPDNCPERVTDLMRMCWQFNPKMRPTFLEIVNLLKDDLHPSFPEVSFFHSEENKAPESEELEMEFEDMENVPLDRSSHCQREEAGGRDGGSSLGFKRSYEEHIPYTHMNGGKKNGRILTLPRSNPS
# runDescription: Inhibition of IRK1 (unknown origin) assessed as remaining activity at 10 uM relative to control
observationType: activity at 10 µM (%)
Write it as a number; the unit % goes unstated.

For the molecule shown here, O=c1[nH]c2ncc(-c3ccc(-c4nc[nH]n4)cc3)nc2n1CCC1CCOCC1 , give the reported activity at 10 µM.
93
